Test: Tacrolimus concentration in whole blood (Example 3)
Type: in vivo, Lewis rats
Settings: Lewis, rat, intraperitoneal, 1 mg/kg, 14 days, systemically treated animals, read-out: trough tacrolimus blood levels
Measured parameter: concentration at 14 days (ng/mL)
Express it in ng/mL; write the number only.

Let me know recorded concentration at 14 days for `C=CC[C@@H]1/C=C(\C)C[C@H](C)C[C@H](OC)[C@H]2O[C@@](O)(C(=O)C(=O)N3CCCC[C@H]3C(=O)O[C@H](/C(C)=C/[C@@H]3CC[C@@H](O)[C@H](OC)C3)[C@H](C)[C@@H](O)CC1=O)[C@H](C)C[C@@H]2OC` , thanks. 14

* * *

Test: Tacrolimus concentration in infra orbital nerves, muscle and PEUU wraps (Example 3)
Assay type: in vivo, Lewis rats
Conditions: Lewis, rat, muscle; daily intraperitoneal injections 1 mg/kg for 14 days; read-out: tacrolimus concentration in muscle
Measured parameter: concentration at 14 days

Give the reported concentration at 14 days for this molecule. `C=CC[C@@H]1/C=C(\C)C[C@H](C)C[C@H](OC)[C@H]2O[C@@](O)(C(=O)C(=O)N3CCCC[C@H]3C(=O)O[C@H](/C(C)=C/[C@@H]3CC[C@@H](O)[C@H](OC)C3)[C@H](C)[C@@H](O)CC1=O)[C@H](C)C[C@@H]2OC` ~172 ng/g

* * *

Experiment: Tacrolimus concentration in infra orbital nerves, muscle and PEUU wraps (Example 3)
Format: in vivo, Lewis rats
Details: Lewis, rat, infra orbital nerves (IONs); daily intraperitoneal injections 1 mg/kg for 14 days; read-out: tacrolimus concentration in IONs
Measured parameter: concentration at 14 days

Give the reported concentration at 14 days for this compound. C=CC[C@@H]1/C=C(\C)C[C@H](C)C[C@H](OC)[C@H]2O[C@@](O)(C(=O)C(=O)N3CCCC[C@H]3C(=O)O[C@H](/C(C)=C/[C@@H]3CC[C@@H](O)[C@H](OC)C3)[C@H](C)[C@@H](O)CC1=O)[C@H](C)C[C@@H]2OC [tacrolimus] ~196 ng/g

* * *

Assay: RGC viability analysis (calcein/propidium iodide live/dead kit)
Format: cell-based, rat
Settings: both sexes, Sprague-Dawley, rat, primary retinal ganglion cells (RGCs); 50 μM tacrolimus, 3 days in vitro
Measured parameter: viability at 3 days, 50 μM (%)
Expressed in %, but write only the number.

Answer with the recorded viability at 3 days, 50 μM for the molecule listed here: `C=CC[C@@H]1/C=C(\C)C[C@H](C)C[C@H](OC)[C@H]2O[C@@](O)(C(=O)C(=O)N3CCCC[C@H]3C(=O)O[C@H](/C(C)=C/[C@@H]3CC[C@@H](O)[C@H](OC)C3)[C@H](C)[C@@H](O)CC1=O)[C@H](C)C[C@@H]2OC` 0

* * *

Assay: Tacrolimus concentration in blood, optic nerve ischemia model (Example 1)
Type: in vivo, Sprague-Dawley rats
Conditions: Sprague-Dawley, rat, whole blood, ip; 24 hour, systemic administration (i.p. 2.2 mg/kg/day)
Measured parameter: concentration at 24 h (ng/mL)
Just the number please, in ng/mL, no unit attached.

Provide concentration at 24 h value for the following molecule: C=CC[C@@H]1/C=C(\C)C[C@H](C)C[C@H](OC)[C@H]2O[C@@](O)(C(=O)C(=O)N3CCCC[C@H]3C(=O)O[C@H](/C(C)=C/[C@@H]3CC[C@@H](O)[C@H](OC)C3)[C@H](C)[C@@H](O)CC1=O)[C@H](C)C[C@@H]2OC [tacrolimus] 7.05

* * *

Assay: in vivo
Parameters: species or system Sprague-Dawley rats
Settings: Sprague-Dawley, rat, 2.2 mg/kg/day, tacrolimus concentration, left retina
Measured parameter: concentration at 14 days (ng/g)
Just the number in ng/g, nothing appended.

# return recorded concentration at 14 days for input `C=CC[C@@H]1/C=C(\C)C[C@H](C)C[C@H](OC)[C@H]2O[C@@](O)(C(=O)C(=O)N3CCCC[C@H]3C(=O)O[C@H](/C(C)=C/[C@@H]3CC[C@@H](O)[C@H](OC)C3)[C@H](C)[C@@H](O)CC1=O)[C@H](C)C[C@@H]2OC` 618

* * *

Assay: in vivo
Set-up: species or system Sprague-Dawley rats
Conditions: Sprague-Dawley, rat, 2.2 mg/kg/day, tacrolimus concentration, right retina
Measured parameter: concentration at 14 days (ng/g)
// units = ng/g; emit number, no label

Tell me measured concentration at 14 days for `C=CC[C@@H]1/C=C(\C)C[C@H](C)C[C@H](OC)[C@H]2O[C@@](O)(C(=O)C(=O)N3CCCC[C@H]3C(=O)O[C@H](/C(C)=C/[C@@H]3CC[C@@H](O)[C@H](OC)C3)[C@H](C)[C@@H](O)CC1=O)[C@H](C)C[C@@H]2OC` please. 530

* * *

Test: Tacrolimus concentration in blood, optic nerve ischemia model (Example 1)
Format: in vivo, Sprague-Dawley rats
Details: Sprague-Dawley, rat, whole blood, ip; 14 days, systemic administration (i.p. 2.2 mg/kg/day)
Measured parameter: concentration at 14 days (ng/mL)
The response must be a number in ng/mL with no trailing unit.

Give the reported value of concentration at 14 days for this record: C=CC[C@@H]1/C=C(\C)C[C@H](C)C[C@H](OC)[C@H]2O[C@@](O)(C(=O)C(=O)N3CCCC[C@H]3C(=O)O[C@H](/C(C)=C/[C@@H]3CC[C@@H](O)[C@H](OC)C3)[C@H](C)[C@@H](O)CC1=O)[C@H](C)C[C@@H]2OC [tacrolimus] 27.7

Source of measurements: patent US11529318B2
